Target: T1, human IgE (human, UniProt P01854)
T1 chain: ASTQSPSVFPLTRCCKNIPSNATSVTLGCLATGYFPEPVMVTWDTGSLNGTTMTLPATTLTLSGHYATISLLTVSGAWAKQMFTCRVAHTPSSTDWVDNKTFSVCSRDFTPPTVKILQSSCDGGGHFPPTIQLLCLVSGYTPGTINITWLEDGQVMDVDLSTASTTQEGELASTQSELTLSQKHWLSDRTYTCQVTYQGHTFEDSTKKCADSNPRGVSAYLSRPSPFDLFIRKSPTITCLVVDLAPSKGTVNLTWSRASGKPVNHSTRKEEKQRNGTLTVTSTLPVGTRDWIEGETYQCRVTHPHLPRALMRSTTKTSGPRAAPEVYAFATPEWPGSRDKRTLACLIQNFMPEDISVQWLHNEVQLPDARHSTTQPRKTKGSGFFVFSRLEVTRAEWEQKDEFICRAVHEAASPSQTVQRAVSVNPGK
Test: competition SPR, pH 6.0
assay-readout: IC50
Please state the number and follow it with the unit.

13E4 (antibody, V domains shown) VH: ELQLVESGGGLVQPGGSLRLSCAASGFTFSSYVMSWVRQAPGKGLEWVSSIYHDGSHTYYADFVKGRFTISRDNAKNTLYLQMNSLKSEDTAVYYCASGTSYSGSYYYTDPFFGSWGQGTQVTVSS VL: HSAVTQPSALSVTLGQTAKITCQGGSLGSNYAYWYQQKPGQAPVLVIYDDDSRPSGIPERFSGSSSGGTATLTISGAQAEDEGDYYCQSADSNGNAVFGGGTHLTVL	2.5 µg/mL

Entry VL18B9_Y49H (18B9His) (antibody, V domains shown) VH: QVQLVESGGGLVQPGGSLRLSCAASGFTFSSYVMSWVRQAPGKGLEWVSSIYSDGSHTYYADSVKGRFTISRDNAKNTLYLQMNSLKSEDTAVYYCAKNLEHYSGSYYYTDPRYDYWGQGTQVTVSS VL: SSALTQPSALSVTLGQTAKITCQGGSLGSSYVHWYQQKPGQAPVLVIHDGDSRPSGIPERFSGSSSGGTATLTISGAQAEDEDDYYCQSADSSGNAVFGGGTHLTVL , IC50 reported as 58.5 µg/mL

The recorded IC50 for entry 18E2_VH_S35H_VL_Y34H (18E2His2) (antibody, V domains shown) VH: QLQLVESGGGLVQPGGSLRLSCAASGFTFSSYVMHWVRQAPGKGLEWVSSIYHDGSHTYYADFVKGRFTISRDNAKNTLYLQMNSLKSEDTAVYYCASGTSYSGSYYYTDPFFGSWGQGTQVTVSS VL: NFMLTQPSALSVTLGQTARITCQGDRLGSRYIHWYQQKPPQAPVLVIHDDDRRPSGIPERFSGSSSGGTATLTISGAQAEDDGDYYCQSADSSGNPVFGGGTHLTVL equals 6310 µg/mL

Entry 18B9His-hIgG1-ABDEG (antibody, V domains shown) VH: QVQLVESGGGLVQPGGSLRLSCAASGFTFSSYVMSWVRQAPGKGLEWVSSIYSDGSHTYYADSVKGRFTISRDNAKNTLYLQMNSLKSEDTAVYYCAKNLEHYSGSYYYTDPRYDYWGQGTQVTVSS VL: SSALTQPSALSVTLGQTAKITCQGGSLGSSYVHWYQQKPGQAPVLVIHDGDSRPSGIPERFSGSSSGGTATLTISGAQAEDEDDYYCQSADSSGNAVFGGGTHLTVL ; IC50 = 52.9 µg/mL

So for 18E2His2-hIgG1-ABDEG (antibody, V domains shown) VH: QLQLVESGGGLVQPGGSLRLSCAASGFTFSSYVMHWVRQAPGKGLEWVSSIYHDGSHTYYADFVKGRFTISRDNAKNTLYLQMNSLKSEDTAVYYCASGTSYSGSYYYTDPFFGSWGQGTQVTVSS VL: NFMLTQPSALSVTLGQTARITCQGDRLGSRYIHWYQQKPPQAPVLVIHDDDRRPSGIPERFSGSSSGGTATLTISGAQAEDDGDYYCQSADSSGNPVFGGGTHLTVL , the logged IC50 turned out to be 7320 µg/mL

Briefly, IC50 measured for 13E4-hIgG1-ABDEG (antibody, V domains shown) VH: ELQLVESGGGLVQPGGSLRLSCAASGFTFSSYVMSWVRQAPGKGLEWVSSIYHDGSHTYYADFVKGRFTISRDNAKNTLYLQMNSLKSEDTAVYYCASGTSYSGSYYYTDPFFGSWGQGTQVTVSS VL: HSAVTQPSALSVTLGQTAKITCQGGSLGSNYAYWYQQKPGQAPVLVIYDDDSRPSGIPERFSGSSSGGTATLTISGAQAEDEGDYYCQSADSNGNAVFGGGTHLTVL : 3.2 µg/mL
